Recorded viability, T/C values for a group of molecules are listed next.
System: 299254-011-R-J1-PDC complex spheroids viability
Assay: Anticancer human tumor 299254-011-R-J1-PDC patient-derived melanoma cell line growth inhibition [GQUAD]
Conditions: second compound 0.316 µM; first compound 0.0316 µM; stronger effect = lower value

- MOLECULE: "Cn1ncnc1[C@H]1c2n[nH]c(=O)c3cc(F)cc(c23)N[C@@H]1c1ccc(F)cc1 + CN(C)c1ccc(Nc2c3ccc(NC(=O)CCN4CCCC4)cc3nc3cc(NC(=O)CCN4CCCC4)ccc23)cc1"
  TGT: "299254-011-R-J1-PDC complex spheroids viability"
  viability, T/C (%): 106
- MOLECULE: "O=C(NO)c1cnc(N2CCN(S(=O)(=O)c3ccc4ccccc4c3)CC2)nc1 + CN(C)c1ccc(Nc2c3ccc(NC(=O)CCN4CCCC4)cc3nc3cc(NC(=O)CCN4CCCC4)ccc23)cc1"
  TGT: "299254-011-R-J1-PDC complex spheroids viability"
  viability, T/C (%): 109
- MOLECULE: "O=c1[nH]cc(F)c(=O)[nH]1 + Cc1[nH]c2ccc(F)cc2c1-c1nc2c3cccnc3c3ncccc3c2[nH]1"
  TGT: "299254-011-R-J1-PDC complex spheroids viability"
  viability, T/C (%): 104

###

Test system: 299254-011-R-J1-PDC complex spheroids viability
Experiment: Anticancer human tumor 299254-011-R-J1-PDC cell line growth inhibition [GQUAD]; active = viability on the fitted dose curve at most 10% of control; inactive = the rest;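 note: spheroids exposed to the agents for seven days before readout; percent viability relative to DMSO vehicle control wells = 100%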
Conditions: second compound 3.16 µM; first compound 1 µM
Classes used: class 1 (active), class 0 (inactive)

- MOLECULE: "CC1COCCN1c1cc(C2(S(C)(=N)=O)CC2)nc(-c2ccnc3[nH]ccc23)n1 (stereo not given) + Cc1[nH]c2ccc(F)cc2c1-c1nc2c3cccnc3c3ncccc3c2[nH]1"
  CLASS_NAME: "class 0"
- MOLECULE: "COc1cc(C2c3cc4c(cc3C(OC3OC5COC(C)OC5C(O)C3O)C3COC(=O)C23)OCO4)cc(OC)c1O (stereo not given) + CN(C)c1ccc(Nc2c3ccc(NC(=O)CCN4CCCC4)cc3nc3cc(NC(=O)CCN4CCCC4)ccc23)cc1"
  CLASS_NAME: "class 0"
- MOLECULE: "O=C(NO)c1cnc(N2CCN(S(=O)(=O)c3ccc4ccccc4c3)CC2)nc1 + Cc1cnc(CNC(=O)c2c(=O)c3ccc(N4CCCN(C)CC4)nc3n3c2sc2ccccc23)cn1"
  CLASS_NAME: "class 1"
- MOLECULE: "COc1cc(C2c3cc4c(cc3C(OC3OC5COC(C)OC5C(O)C3O)C3COC(=O)C23)OCO4)cc(OC)c1O (stereo not given) + Cc1cnc(CNC(=O)c2c(=O)c3ccc(N4CCCN(C)CC4)nc3n3c2sc2ccccc23)cn1"
  CLASS_NAME: "class 0"
- MOLECULE: "C=CC(=O)N1CCN(c2nc(=O)n(-c3c(C)ccnc3C(C)C)c3nc(-c4c(O)cccc4F)c(F)cc23)C(C)C1 (stereo not given) + Cc1cnc(CNC(=O)c2c(=O)c3ccc(N4CCCN(C)CC4)nc3n3c2sc2ccccc23)cn1"
  CLASS_NAME: "class 0"

###

Test system: 299254-011-R-J1-PDC complex spheroids viability
Assay: Anticancer human tumor 299254-011-R-J1-PDC cell line growth inhibition [GQUAD];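 note: spheroids exposed to the agents for seven days before readout; percent viability relative to DMSO vehicle control wells = 100%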
Settings: second compound 10 µM; first compound 0.1 µM; stronger effect = lower value
This section presents compounds with their documented viability, T/C values.

- COMPOUND: "CC1COCCN1c1cc(-c2ccnn2C)c2ccnc(-c3ccn[nH]3)c2n1 (stereo not drawn) + Cc1cnc(CNC(=O)c2c(=O)c3ccc(N4CCCN(C)CC4)nc3n3c2sc2ccccc23)cn1"
  viability, T/C / %: 0.22
- COMPOUND: "COc1cc(C2c3cc4c(cc3C(OC3OC5COC(C)OC5C(O)C3O)C3COC(=O)C23)OCO4)cc(OC)c1O (stereo not drawn) + Cc1[nH]c2ccc(F)cc2c1-c1nc2c3cccnc3c3ncccc3c2[nH]1"
  viability, T/C / %: 83
- COMPOUND: "Nc1ccn(C2OC(CO)C(O)C2(F)F)c(=O)n1 (stereo not drawn) + CN(C)c1ccc(Nc2c3ccc(NC(=O)CCN4CCCC4)cc3nc3cc(NC(=O)CCN4CCCC4)ccc23)cc1"
  viability, T/C / %: 80.1
